Target: T1, monovalent hVISTA-ECD (human VISTA extracellular domain with His tail) (human, UniProt Q9H7M9 33-193)
T1 construct: analyte flowed over captured antibody; also called huVISTA-His
T1 sequence (Q9H7M9 other isoform, or with tags, fused parts or gaps limits assumed): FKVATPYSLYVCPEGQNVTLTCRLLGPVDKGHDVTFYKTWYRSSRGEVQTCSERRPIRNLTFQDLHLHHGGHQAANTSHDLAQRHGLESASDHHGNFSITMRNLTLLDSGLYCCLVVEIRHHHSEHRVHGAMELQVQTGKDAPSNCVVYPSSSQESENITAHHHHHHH
Test: SPR, pH 6.0
This listing pairs binders with measured kon.
Value expressed in M⁻¹ s⁻¹; do not type the unit.

P1-065333 (41F11_VH_T28P/Y50W/S55E/L96E/Y100E VK_A64G) (antibody, human IgG1, kappa, V domains shown, IgG1.3; also called P1-065333-1; VISTA.4 pH-independent progeny) VH: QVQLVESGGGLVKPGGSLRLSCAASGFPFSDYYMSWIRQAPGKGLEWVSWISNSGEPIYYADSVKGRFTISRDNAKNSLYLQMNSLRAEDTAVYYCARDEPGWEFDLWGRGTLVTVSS VL: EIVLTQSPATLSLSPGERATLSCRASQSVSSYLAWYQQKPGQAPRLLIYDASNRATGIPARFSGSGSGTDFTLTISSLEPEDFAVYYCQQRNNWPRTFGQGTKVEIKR
3.28e+06
P1-064484 (41F11_VH_L96E) (antibody, V domains shown, Kabat positions; also called P1-064484-1) VH: QVQLVESGGGLVKPGGSLRLSCAASGFTFSDYYMSWIRQAPGKGLEWVSYISNSGSPIYYADSVKGRFTISRDNAKNSLYLQMNSLRAEDTAVYYCARDEPGWYFDLWGRGTLVTVSS VL: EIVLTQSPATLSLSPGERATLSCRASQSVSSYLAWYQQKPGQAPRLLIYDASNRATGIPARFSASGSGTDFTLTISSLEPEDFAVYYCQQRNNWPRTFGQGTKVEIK
2.13e+06
P1-065332 (41F11_VH_T28P/Y50W/S55E/A60H/Y100E VK_A64G) (antibody, V domains shown, Kabat positions; also called P1-065332-1) VH: QVQLVESGGGLVKPGGSLRLSCAASGFPFSDYYMSWIRQAPGKGLEWVSWISNSGEPIYYHDSVKGRFTISRDNAKNSLYLQMNSLRAEDTAVYYCARDLPGWEFDLWGRGTLVTVSS VL: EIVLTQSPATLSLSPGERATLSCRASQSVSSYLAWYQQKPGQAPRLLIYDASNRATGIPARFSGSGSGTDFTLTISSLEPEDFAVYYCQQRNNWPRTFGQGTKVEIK
5.41e+06
P1-064494 (41F11_Vk_A25EA64G) (antibody, V domains shown, also called P1-064494-1) VH: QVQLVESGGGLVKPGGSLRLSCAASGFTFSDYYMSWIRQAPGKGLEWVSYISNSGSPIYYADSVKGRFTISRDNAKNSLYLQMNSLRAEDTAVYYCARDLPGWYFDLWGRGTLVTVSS VL: EIVLTQSPATLSLSPGERATLSCRESQSVSSYLAWYQQKPGQAPRLLIYDASNRATGIPARFSGSGSGTDFTLTISSLEPEDFAVYYCQQRNNWPRTFGQGTKVEIK
1.36e+06
P1-064472 (41F11_VH_F27E) (antibody, V domains shown, Kabat positions; also called P1-064472-1) VH: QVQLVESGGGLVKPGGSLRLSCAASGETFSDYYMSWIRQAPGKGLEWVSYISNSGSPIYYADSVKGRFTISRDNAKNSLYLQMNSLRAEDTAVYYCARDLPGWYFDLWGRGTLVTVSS VL: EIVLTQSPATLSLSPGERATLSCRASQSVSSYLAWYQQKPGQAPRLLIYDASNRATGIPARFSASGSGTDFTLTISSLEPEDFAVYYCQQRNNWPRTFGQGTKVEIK
2.29e+06
P1-064486 (41F11_VH_F100aG) (antibody, V domains shown, Kabat positions; also called P1-064486-1) VH: QVQLVESGGGLVKPGGSLRLSCAASGFTFSDYYMSWIRQAPGKGLEWVSYISNSGSPIYYADSVKGRFTISRDNAKNSLYLQMNSLRAEDTAVYYCARDLPGWYGDLWGRGTLVTVSS VL: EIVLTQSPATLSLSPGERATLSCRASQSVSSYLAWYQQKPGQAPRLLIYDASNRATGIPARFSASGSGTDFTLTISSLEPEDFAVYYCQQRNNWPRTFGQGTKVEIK
3.07e+06

What does the record list as kon for P1-065318 (41F11_VH_L96E VK A64G) (antibody, V domains shown, Kabat positions; also called P1-065318-1) VH: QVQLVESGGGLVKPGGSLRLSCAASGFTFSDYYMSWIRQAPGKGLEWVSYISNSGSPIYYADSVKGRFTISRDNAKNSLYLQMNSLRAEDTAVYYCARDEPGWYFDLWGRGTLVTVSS VL: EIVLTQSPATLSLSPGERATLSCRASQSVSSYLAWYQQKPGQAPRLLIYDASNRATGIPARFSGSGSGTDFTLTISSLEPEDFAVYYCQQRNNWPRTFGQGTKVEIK ?
1.96e+06

P1-064502 (41F11_Vk_R96YA64G) (antibody, V domains shown, also called P1-064502-1) VH: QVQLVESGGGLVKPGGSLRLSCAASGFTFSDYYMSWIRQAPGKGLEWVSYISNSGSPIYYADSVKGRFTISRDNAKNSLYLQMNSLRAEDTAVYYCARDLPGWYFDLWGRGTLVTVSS VL: EIVLTQSPATLSLSPGERATLSCRASQSVSSYLAWYQQKPGQAPRLLIYDASNRATGIPARFSGSGSGTDFTLTISSLEPEDFAVYYCQQRNNWPYTFGQGTKVEIK ?
4.06e+06

Ok, now P1-064528 (41F11_VH_D31E/Y50W/S55E/L96E/Y100E) (antibody, V domains shown, Kabat positions; also called P1-064528-1) VH: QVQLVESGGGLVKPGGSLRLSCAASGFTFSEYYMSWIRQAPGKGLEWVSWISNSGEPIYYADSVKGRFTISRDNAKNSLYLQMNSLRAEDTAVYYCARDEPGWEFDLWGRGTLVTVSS VL: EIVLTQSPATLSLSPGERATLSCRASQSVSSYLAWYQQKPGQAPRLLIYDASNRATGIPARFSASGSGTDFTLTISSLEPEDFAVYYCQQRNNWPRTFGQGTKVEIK
3.49e+06

Also P1-065319 (41F11_VH_F100aG VK_A64G) (antibody, V domains shown, Kabat positions; also called P1-065319-1) VH: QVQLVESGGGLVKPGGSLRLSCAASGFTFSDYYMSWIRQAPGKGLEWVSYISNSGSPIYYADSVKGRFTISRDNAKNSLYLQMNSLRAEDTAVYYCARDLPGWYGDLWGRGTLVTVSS VL: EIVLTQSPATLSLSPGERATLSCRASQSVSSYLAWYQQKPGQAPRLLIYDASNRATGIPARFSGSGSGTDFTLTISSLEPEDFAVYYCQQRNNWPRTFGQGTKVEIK , if possible.
1.32e+06
